Data origin: PubChem BioAssay (NCI)

TGI overview
- System: SNB-75 CNS
- experimentNotes: NCI tumour cell line growth inhibition, 48 h

>>> result("Cc1ccc(S(=O)(=O)NC(=O)NCC(=O)NCC(=O)O)cc1")
"> 100 µM"
>>> result("COc1ccc(/C(Cl)=C(\\C=O)c2ccc(OC)c(OC)c2)cc1OC")
"41 µM"
>>> result("CC(=O)OCC(OC(C)=O)C(OC(C)=O)C(OC(C)=O)C(=O)CNn1c(-c2ccccc2)nc2ccc(Br)cc2c1=O (configuration not stated)")
"> 100 µM"
>>> result("O=C1c2ccccc2C(=O)c2c(NCCNC(=O)C3CCCN3)ccc(NCCNC(=O)C3CCCN3)c21 (configuration not stated)")
"> 100 µM"
>>> result("COc1ccc(C2SC(N)=Nc3c2c(C)nn3C(=O)c2ccc(Cl)cc2)cc1 (configuration not stated)")
"> 10 µM"

IN: Give TGI (SNB-75 CNS) of the following molecule: Cc1c(C2Cc3ccccc3N2C(=O)/C=C\C(=O)O)c2ccccc2n1C (configuration not stated)
OUT: 74.2 µM

IN: Give TGI (SNB-75 CNS) of the following molecule: Oc1cc(O)cc(/C=C/c2ccc(O)c(O)c2)c1
OUT: 51.7 µM

IN: Give TGI (SNB-75 CNS) of the following molecule: Fc1ccc(F)c(C2SCc3nc4ccccc4n32)c1 (configuration not stated)
OUT: > 100 µM

IN: Give TGI (SNB-75 CNS) of the following molecule: C=C(C)[C@@H]1CC[C@@H](C)[C@](O)([C@@H]2C[C@@H]([C@H](COC(=O)c3ccccc3)OC(=O)c3ccccc3)OC2=O)C1
OUT: > 100 µM

IN: Give TGI (SNB-75 CNS) of the following molecule: COc1ccc2nc3cc([N+](=O)[O-])ccc3c(NNc3ccc(Cl)cc3)c2c1
OUT: > 100 µM

IN: Give TGI (SNB-75 CNS) of the following molecule: COc1cc(-c2nn(C(=O)NS(=O)(=O)c3ccc(C)cc3)cc2-c2ccncc2)ccc1Cl
OUT: 7.52 µM

IN: Give TGI (SNB-75 CNS) of the following molecule: CC(=O)O[C@H]1C(=O)[C@@]2(C)[C@H]([C@H](OC(=O)c3ccc([N+](=O)[O-])cc3)[C@]3(O)C[C@H](OC(=O)[C@H](O)[C@@H](NC(=O)c4ccccc4)c4ccccc4)C(C)=C1C3(C)C)[C@]1(OC(C)=O)CO[C@@H]1C[C@@H]2O
OUT: > 25 µM

----------
- System: NCI-H522 lung
- experimentNotes: NCI tumour cell line growth inhibition, 48 h
quantity: TGI (µM)
Record the value in µM, omitting the unit from your answer.

Example entries and their recorded answers appear below.
>>> numericvalue("N#CC1=C(C#N)/C(=C(\\C#N)C(C#N)C#N)N=C1N")
47.7
>>> numericvalue("COc1cc(C)cc2c1C(=O)C(Br)=CC2=O")
3.19
>>> numericvalue("O=C(Nc1cccc2cccnc12)c1ccc(N2C(=O)[C@@H]3[C@H](C2=O)[C@@H]2C=C[C@H]3C2)cc1")
54.4
>>> numericvalue("C[C@H]1CCC/C=C/[C@@H]2C[C@H](O)C[C@H]2[C@H](O)[C@@H](S(=O)CCN)CC(=O)O1 (stereo not given in full)")
0.926
>>> numericvalue("COc1ccc(-c2onc(-c3c(C)cc(C)cc3C)c2C2=NCCCN2)cc1")
35.5

IN: Give TGI (NCI-H522 lung) of the following compound: COc1ccc(OC)c(-c2cc(-c3ccccc3)nn2-c2ccc(S(N)(=O)=O)cc2)c1
OUT: 30

----------
- Tested on: MOLT-4 leukemia
- experimentNotes: NCI tumour cell line growth inhibition, 48 h
TGI overview

>>> result("COC(=O)[C@H]1C=C[C@@H](C)n2c(=O)c3ccccc3c(=O)n21")
"> 100 µM"
>>> result("COc1ccc(-c2onc(-c3c(C)cc(C)cc3C)c2C2=NCCCN2)cc1")
"> 100 µM"
>>> result("Cc1[nH]c(=O)nc(CC(O)(c2ccccc2)c2ccccc2)c1-c1ccccc1")
"> 100 µM"
>>> result("Cc1[nH]n(-c2nc3c(c(=O)[nH]2)CCC3)c(=O)c1CCO")
"> 100 µM"
>>> result("COc1ccc(CCNCc2cccc(OC)c2OC)cc1OC")
"> 100 µM"
>>> result("COc1ccc(NC(=O)c2sc3nc(C)c(C(O)c4ccc(OC)cc4)cc3c2N)cc1 (stereo not given)")
"> 50 µM"

IN: Look up TGI: N#CCC(=O)N/N=C1/C(=O)NC(=O)C(=O)C1c1nc2ccccc2s1 (stereo not given)
OUT: > 100 µM

IN: Look up TGI: C[C@]12CC(c3ccccc3O1)C(C#N)C(=O)N2 (stereo not given in full)
OUT: > 100 µM

IN: Look up TGI: CN(C)c1ccc2nc3c(C(=O)O)cc(=O)c(O)c-3oc2c1
OUT: 51.8 µM

IN: Look up TGI: O=[N+]([O-])c1cc(Cl)cc2c1nc(NCCO)c1ccccc12
OUT: 34 µM

----------
- Tested on: RPMI-8226 leukemia
- experimentNotes: NCI tumour cell line growth inhibition, 48 h; in the data active = GI50 below about 0.43 µM; inactive = the rest
Bench note: report the call from active, inactive

>>> label("COC(=O)c1c2c(c(C)[n+]([O-])c1C)C(=O)C(NCc1cccc(OC)c1)=CC2=O")
"inactive"
>>> label("Cc1c2ncccc2nc2[nH]c3ccc(OCCN(C)C)cc3c12")
"inactive"
>>> label("CCOC(=O)c1c(C)n(CC(C)C)c2c1cc1oc(=O)c(=O)n3cnc2c13")
"inactive"
>>> label("O=C1/C(=C/c2ccc([N+](=O)[O-])s2)Oc2ccccc21")
"active"
>>> label("COc1ccc(C2C(c3ccccc3)C(=O)N2c2cc(OC)c(OC)c(OC)c2)cc1I (configuration not stated)")
"active"

For the next question, use this molecule.
IN: # outcome recorded in this test, key = COc1ccc2c(c1OC)-c1c(c3ccc([N+](=O)[O-])cc3c(=O)n1CCCN=[N+]=[N-])C2=O
OUT: inactive

----------
- System: HT29 colon
- experimentNotes: NCI tumour cell line growth inhibition, 48 h
Where a SMILES comes first, the peptide text is derived from it. [ ]: non-standard residue; d: D form. The star is where a group is joined. ξ: configuration not given here. ξPhe(4-NO2) = NC(Cc1ccc([N+](=O)[O-])cc1)C(=O)O; Boc = CC(C)(C)OC(=O)*; OBn = c1ccc(CO*)cc1
TGI overview

Example entries and their recorded answers appear below.
>>> result("COc1cc(-c2nn(C(=O)NS(=O)(=O)c3ccc(C)cc3)cc2-c2ccncc2)ccc1Cl")
"17.6 µM"
>>> result("CC1(C)CCCCCCCCCC(C)(CCCO)C1=O (configuration not stated)")
"26.6 µM"
>>> result("CCCCN(CCCC)CC(C)(C)C(O)c1ccc(OC)c2ccccc12 (configuration not stated)")
"13.4 µM"
>>> result("CC(C)(C)OC(=O)NC(Cc1ccc([N+](=O)[O-])cc1)C(=O)NCC(=O)OCc1ccccc1 (configuration not stated) (Boc-[ξPhe(4-NO2)]-Gly-OBn)")
"61.3 µM"
>>> result("CC(NC(=O)/C(C#N)=C/c1ccc2[nH]ccc2c1)c1ccccc1 (configuration not stated)")
"31.6 µM"

IN: Look up TGI: O=C1C(Cl)C(c2ccc(Cl)cc2)N1n1cnc2ccccc2c1=O (configuration not stated)
OUT: > 100 µM

IN: Look up TGI: CN(C)c1ccc2nc3c(C(=O)O)cc(=O)c(O)c-3oc2c1
OUT: > 100 µM

IN: Look up TGI: c1ccc2[nH]c3[nH]c4[nH]c5ccccc5[nH]c4[nH]c3[nH]c2c1
OUT: > 100 µM

----------
- Tested on: SNB-75 CNS
- experimentNotes: NCI tumour cell line growth inhibition, 48 h
TGI overview

Example entries and their recorded answers appear below.
>>> result("CCN(Cc1nc2cc(C(F)(F)F)ccc2nc1-c1ccccc1)c1ccc(OC)c(OC)c1")
"71.7 µM"
>>> result("CC1=NN2C(=O)CC(=O)N=C2S1")
"> 100 µM"
>>> result("C=C1CC2(OC1=O)c1ccccc1C=Cc1ccccc12")
"20.2 µM"
>>> result("CCCC[P+](c1ccccc1)(c1ccccc1)c1ccccc1")
"> 100 µM"
>>> result("Cc1ccc(C)c(/C(=N\\N=C(N)N)C2CC2)c1")
"> 100 µM"

IN: Look up TGI: c1ccc2c[n+](CCCCCCCCCC[n+]3ccc4ccccc4c3)ccc2c1
OUT: > 10 µM

----------
- Tested on: MALME-3M melanoma
- experimentNotes: NCI tumour cell line growth inhibition, 48 h
TGI overview

>>> result("COc1cc2c(cc1OC)C(Cl)C(c1ccc(Cl)cc1)=C2Cl (stereo unspecified)")
"56.8 µM"

IN: Give TGI (MALME-3M melanoma) of the following compound: NCS(=O)(=O)O
OUT: > 100 µM

IN: Give TGI (MALME-3M melanoma) of the following compound: Cc1c2ccnc(-c3ccccc3)c2cc2c1[nH]c1ccccc12
OUT: 9.31 µM
